Target: PDE7A (Homo sapiens, UniProt Q13946)
Sequence (Q13946 whole entry): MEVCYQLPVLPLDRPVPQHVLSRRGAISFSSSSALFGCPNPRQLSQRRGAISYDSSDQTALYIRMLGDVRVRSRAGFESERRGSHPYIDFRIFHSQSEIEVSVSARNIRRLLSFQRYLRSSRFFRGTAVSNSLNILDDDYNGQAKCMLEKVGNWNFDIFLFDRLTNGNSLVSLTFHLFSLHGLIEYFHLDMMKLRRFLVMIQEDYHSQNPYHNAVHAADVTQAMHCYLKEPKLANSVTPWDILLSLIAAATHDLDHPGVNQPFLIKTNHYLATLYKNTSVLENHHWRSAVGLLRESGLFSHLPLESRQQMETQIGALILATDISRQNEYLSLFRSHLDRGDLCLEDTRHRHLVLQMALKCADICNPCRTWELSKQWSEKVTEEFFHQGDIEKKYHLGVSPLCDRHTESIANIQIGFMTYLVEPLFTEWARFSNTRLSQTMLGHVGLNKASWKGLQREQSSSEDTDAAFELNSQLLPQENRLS
Assay: 5FOA growth assay in fission yeast strain expressing PDE7A
Format: cell-based
Design: targets used in the assays are full-length proteins (as opposed to simply the catalytic domain); expressed in transfected cells; host or cells: Schizosaccharomyces pombe, PDE gene integrated in place of cgs2
Details: high throughput 5FOA growth screen
So basically: is Composite Z score, PDE7A under -0.3? Then met. Not under? Then not met.

Query: Below -0.3 on Composite Z score, PDE7A? Entry `Cc1sc2ncnc(NCc3cccnc3)c2c1C`
Response: not met

Query: Below -0.3 on Composite Z score, PDE7A? Entry `c1nc(NCCCN2CCOCC2)c2c3c(sc2n1)CCCC3`
Response: met

Query: Below -0.3 on Composite Z score, PDE7A? Entry `Cc1c(C(=O)N(C)Cc2ccccc2)sc2ncnc(N3CCN(c4ccccc4)CC3)c12`
Response: met

Query: Below -0.3 on Composite Z score, PDE7A? Entry `OCCNc1ncnc2sc3c(c12)CCCC3`
Response: met

Query: Below -0.3 on Composite Z score, PDE7A? Entry `c1ccc(CNc2ncnc3sc4c(c23)CCCC4)cc1`
Response: not met

Query: Below -0.3 on Composite Z score, PDE7A? Entry `O=C(Nc1ncnc2sc3c(c12)CCC3)c1cccs1`
Response: not met

====

Target: UniProt Q08499
Test: in vitro enzyme assay PDE4D (Table 7)
Assay type: biochemical
Details: 2 micromolar compound; read-out: percent of PDE activity present, PDE4D
So basically: is remaining activity at 2 µM under 70%? Then yes. Not under? Then no.

Query: Below 70% on remaining activity at 2 µM? Entry `Cc1c(C(=O)Nc2ccc(F)cc2F)sc2ncnc(N3CCN(C)CC3)c12`
Response: no

Query: Below 70% on remaining activity at 2 µM? Entry `Cc1c(C(=O)Nc2ccc(F)cc2F)sc2ncnc(N(C)c3ccccc3)c12`
Response: no

Query: Below 70% on remaining activity at 2 µM? Entry Cc1nc(N2CCCCC2C)c2c(C)c(C(=O)Nc3ccc(F)cc3F)sc2n1 (stereo not drawn)
Response: yes

Query: Below 70% on remaining activity at 2 µM? Entry `Cc1c(C(=O)Nc2ccc(F)cc2F)sc2ncnc(N3CCC(C)CC3)c12`
Response: yes

Query: Below 70% on remaining activity at 2 µM? Entry `Cc1nc(N2CCOCC2)c2c(C)c(C(=O)Nc3ccc(F)cc3F)sc2n1`
Response: yes

Query: Below 70% on remaining activity at 2 µM? Entry COc1cc(NC(=O)c2sc3ncnc(N4CCCCC4C)c3c2C)cc(OC)c1OC (stereo not drawn)
Response: yes

====

Molecular target: PDE4A1 (Mus musculus, UniProt O89084)
Construct: targets used in the assays are full-length proteins (as opposed to simply the catalytic domain); expressed in transfected cells; host or cells: Schizosaccharomyces pombe, PDE gene integrated in place of cgs2
Sequence (O89084 1-610 isoform O89084-2): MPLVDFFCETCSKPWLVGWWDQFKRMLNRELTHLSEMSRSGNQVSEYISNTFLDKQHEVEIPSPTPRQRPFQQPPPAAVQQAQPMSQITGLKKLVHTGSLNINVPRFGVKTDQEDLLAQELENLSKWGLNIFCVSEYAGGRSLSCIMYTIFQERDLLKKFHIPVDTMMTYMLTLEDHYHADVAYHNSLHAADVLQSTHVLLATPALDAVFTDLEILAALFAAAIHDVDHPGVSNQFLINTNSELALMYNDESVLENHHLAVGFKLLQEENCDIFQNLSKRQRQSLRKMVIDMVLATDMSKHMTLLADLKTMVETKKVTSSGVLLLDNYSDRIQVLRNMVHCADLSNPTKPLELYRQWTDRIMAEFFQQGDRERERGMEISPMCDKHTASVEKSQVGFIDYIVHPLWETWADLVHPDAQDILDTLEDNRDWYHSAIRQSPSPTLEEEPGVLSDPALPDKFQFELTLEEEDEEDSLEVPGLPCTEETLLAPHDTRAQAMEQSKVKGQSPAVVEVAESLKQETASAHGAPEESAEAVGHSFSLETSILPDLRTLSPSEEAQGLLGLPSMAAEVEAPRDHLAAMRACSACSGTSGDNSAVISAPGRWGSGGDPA
Experiment: 5FOA growth assay (high throughput screen, ED50) in fission yeast strain expressing PDE4A1
Type: cell-based
Details: high throughput 5FOA growth screen; greater than 8.53 = statistically-significant inhibitor
Consider the following compounds; for each one, report its Composite Z score, PDE4A1.
Give only the figure.

Query: # return recorded Composite Z score, PDE4A1 for input `O=C(Nc1ncnc2sc3c(c12)CCCCC3)c1ccco1`
Response: 6.4203

Query: # return recorded Composite Z score, PDE4A1 for input `c1ccc(CN2CCN(c3ncnc4sc5c(c34)CCCCC5)CC2)cc1`
Response: −0.348

Query: # return recorded Composite Z score, PDE4A1 for input `COc1ccc(C(=O)Nc2ncnc3sc4c(c23)CCCC4)cc1OC`
Response: 9.1375

Query: # return recorded Composite Z score, PDE4A1 for input `Cc1nc(NCc2ccco2)c2c3c(sc2n1)CCC3`
Response: −0.033

Query: # return recorded Composite Z score, PDE4A1 for input `Cc1sc2ncnc(NCc3cccnc3)c2c1C`
Response: 0.1374

Query: # return recorded Composite Z score, PDE4A1 for input `Cc1c(C(=O)N2CCCCCC2)sc2ncnc(N3CCN(c4ccccc4)CC3)c12`
Response: 0.2744

Query: # return recorded Composite Z score, PDE4A1 for input `CCNc1nc(C)nc2sc3c(c12)CCCC3`
Response: 2.9506

Query: # return recorded Composite Z score, PDE4A1 for input `CCOC(=O)c1ccccc1NC(=O)c1sc2nc(C)nc(N(CC)CC)c2c1C`
Response: 12.157

Query: # return recorded Composite Z score, PDE4A1 for input `CCOC(=O)CSc1nc(NC)c2c3c(sc2n1)CCCC3`
Response: 0.5702

Query: # return recorded Composite Z score, PDE4A1 for input `COCCNC(=O)c1sc2ncnc(N3CCN(c4ccccn4)CC3)c2c1C`
Response: 1.1811

Query: # return recorded Composite Z score, PDE4A1 for input `O=C(Nc1ncnc2sc3c(c12)CCCC3)C(F)(F)F`
Response: 0.1456

Query: # return recorded Composite Z score, PDE4A1 for input CC1CCc2c(sc3nc(SCC(N)=O)nc(NCc4ccccc4)c23)C1 (stereo not shown) [Compound 1157L22]
Response: 2.3434

Query: # return recorded Composite Z score, PDE4A1 for input `Cc1c(C(=O)NCCC(C)C)sc2ncnc(N3CCOCC3)c12`
Response: 3.5005

Query: # return recorded Composite Z score, PDE4A1 for input CCN(CC)CCCNc1ncnc2sc3c(c12)CC(C)CC3 (stereo not shown)
Response: 1.9931

Query: # return recorded Composite Z score, PDE4A1 for input `Cc1cc(C)c(C)c(S(=O)(=O)N2CCN(c3ncnc4sc5c(c34)CCCC5)CC2)c1C`
Response: 1.67

Query: # return recorded Composite Z score, PDE4A1 for input Cc1nc(N2CC(C)OC(C)C2)c2c3c(sc2n1)CCC3 (stereo not shown)
Response: 2.1932

Query: # return recorded Composite Z score, PDE4A1 for input `C=CCNc1ncnc2sc3c(c12)CCCC3`
Response: 8.4736

Query: # return recorded Composite Z score, PDE4A1 for input `CCOC(=O)c1sc2nc(C)nc(N(C)Cc3ccccc3)c2c1C`
Response: 0.6949

Query: # return recorded Composite Z score, PDE4A1 for input `Cc1c(C(=O)NCc2ccco2)sc2ncnc(N3CCN(c4ccccc4)CC3)c12`
Response: 7.7398

====

Molecular target: PDE4D3 (Homo sapiens)
Construct: targets used in the assays are full-length proteins (as opposed to simply the catalytic domain)
Sequence (Q08499 1-673 isoform Q08499-2): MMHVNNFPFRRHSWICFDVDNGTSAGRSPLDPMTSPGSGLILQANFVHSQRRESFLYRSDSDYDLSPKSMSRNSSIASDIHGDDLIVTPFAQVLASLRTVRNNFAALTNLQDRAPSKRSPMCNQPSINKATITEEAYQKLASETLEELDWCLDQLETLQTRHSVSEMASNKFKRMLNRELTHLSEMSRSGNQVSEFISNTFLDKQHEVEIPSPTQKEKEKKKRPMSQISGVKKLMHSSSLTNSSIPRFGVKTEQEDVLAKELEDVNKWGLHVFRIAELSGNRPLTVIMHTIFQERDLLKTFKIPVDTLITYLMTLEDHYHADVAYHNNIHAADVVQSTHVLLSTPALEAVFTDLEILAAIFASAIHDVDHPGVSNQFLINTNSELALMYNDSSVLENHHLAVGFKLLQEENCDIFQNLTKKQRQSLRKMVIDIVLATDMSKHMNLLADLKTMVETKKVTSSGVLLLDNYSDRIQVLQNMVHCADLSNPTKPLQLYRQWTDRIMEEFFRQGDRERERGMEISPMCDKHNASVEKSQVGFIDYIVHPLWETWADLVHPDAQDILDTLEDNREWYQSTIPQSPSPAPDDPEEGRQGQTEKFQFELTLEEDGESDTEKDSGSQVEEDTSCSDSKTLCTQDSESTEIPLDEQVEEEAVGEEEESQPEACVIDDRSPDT
Test: 5FOA growth assay in fission yeast strain expressing PDE4D3
Settings: OD600 0.6; read-out: ED50 for 5FOA growth assays, PDE4D3
Attribute measured: EC50 (µM)
Express it in µM; write the number only.

Query: Quote PDE4D3 (Homo sapiens) EC50 for entry CCN(CC)c1ncnc2sc3c(c12)CCCC3 [BC44] .
Response: 3.3

Query: Quote PDE4D3 (Homo sapiens) EC50 for entry CCC1CCc2c(sc3ncnc(N4CCOCC4)c23)C1 (stereo not drawn) [BC33] .
Response: 33

====

Consider the following compounds; for each one, report its Composite Z score, PDE4A1.
Target: PDE4A1 (Mus musculus, UniProt O89084)
Construct: targets used in the assays are full-length proteins (as opposed to simply the catalytic domain); expressed in transfected cells; host or cells: Schizosaccharomyces pombe, PDE gene integrated in place of cgs2
Test: 5FOA growth assay (high throughput screen, ED50) in fission yeast strain expressing PDE4A1
Format: cell-based
Conditions: high throughput 5FOA growth screen; greater than 8.53 = statistically-significant inhibitor
Give only the figure.

Query: # return recorded Composite Z score, PDE4A1 for input `CCN(CC)c1ncnc2sc(C)c(C)c12`
Response: 1.647

Query: # return recorded Composite Z score, PDE4A1 for input `c1nc(NCCCN2CCOCC2)c2c3c(sc2n1)CCCC3`
Response: 1.1862

Query: # return recorded Composite Z score, PDE4A1 for input COc1cc(OC)c(NC(=O)c2sc3ncnc(N4CCCCC4C)c3c2C)cc1Cl (stereo not drawn)
Response: 3.0133

Query: # return recorded Composite Z score, PDE4A1 for input `c1cn(CCCNc2ncnc3sc4c(c23)CCCC4)cn1`
Response: 1.6661

Query: # return recorded Composite Z score, PDE4A1 for input `CCN(CC)c1nc(C)nc2sc(C(=O)N3CCCCCC3)c(C)c12`
Response: 7.3705

Query: # return recorded Composite Z score, PDE4A1 for input `c1nc(N2CCCCC2)c2c3c(sc2n1)CCC3`
Response: 4.6254

Query: # return recorded Composite Z score, PDE4A1 for input `O=C(/C=C/c1ccccc1)Nc1ncnc2sc3c(c12)CCC3`
Response: −1.395

Query: # return recorded Composite Z score, PDE4A1 for input `CCOC(CNc1nc(C)nc2sc3c(c12)CCCC3)OCC`
Response: 3.1355

Query: # return recorded Composite Z score, PDE4A1 for input N#CC1(c2ccccc2)CCc2c(sc3ncnc(N4CCCC4)c23)C1 (stereo not drawn)
Response: 1.2506
